- Tested on: NCI-H226 lung
- run_description: NCI tumour cell line growth inhibition, 48 h
Field: TGI. Provide a value for each of the compounds that follow.

Recorded results for 3 compounds are shown here.
molecular_string: CCCN(CCC)C(=O)C(=O)c1c(N)[nH]n(-c2ccccc2)c1=O
measured_on: NCI-H226 lung
TGI: > 100 µM
//
molecular_string: N#CNC(=NCCc1c[nH]c2ccccc12)Oc1ccccc1
measured_on: NCI-H226 lung
TGI: > 100 µM
//
molecular_string: COc1ccc2nc3cc(Cl)ccc3c(SCC(=O)Nc3ccccc3-c3ccccc3NC(=O)CSc3c4ccc(Cl)cc4nc4ccc(OC)cc34)c2c1
measured_on: NCI-H226 lung
TGI: > 100 µM

## Task Form: Entry = O=C(Nc1ccc(Oc2cccc(F)c2)c(Cl)c1)c1cnccn1 | System = NCI-H226 lung | TGI = ____
## Result > 50 µM

###

Field: TGI. Provide a value for each of the compounds that follow.
- Tested on: SR leukemia
- run_description: NCI tumour cell line growth inhibition, 48 h

compound: CC(C)(C)c1[nH]nc2c1C(c1cc3ccccc3[nH]c1=O)Nc1cc(C(=O)OCc3ccccc3)ccc1N2 (stereo not given)
TGI: > 100 µM
//
compound: CC1(C)[C@@H]2C[C@H]1c1cnc(-c3ccccn3)cc1C2CCCCC[C@@H]1c2cc(-c3ccccn3)ncc2[C@@H]2C[C@H]1C2(C)C (stereo not given in full)
TGI: > 100 µM
//
compound: N#Cc1c(O)c(/C=N/c2ncccn2)c(=O)n2c1[nH]c1ccccc12
TGI: > 100 µM
//
compound: O=C(OCCNC(=O)N1CC1)OCCNC(=O)N1CC1
TGI: > 10 µM
//
compound: CCOP(=O)(OCC)OC1c2[nH]cc(C(=O)OCc3ccccc3)c2-c2cc(C(=O)OC)[nH]c2C1OC (stereo not given)
TGI: > 100 µM

State the recorded TGI for every item in the following list.
1. CN(Cc1cnc2c(N)nc(N)nc2n1)c1ccc(Cl)cc1
2. Cc1ccc2c(=O)c3ccccc3sc2c1
3. COC(=O)C1=C(C)NC(C)=C(C(=O)OCC(C)C)C1c1ccccc1[N+](=O)[O-] (stereo not given)
4. COc1cc(OC)c2[nH]c3c(O)c(-c4c(C)cc5c([nH]c6c(OC)cc(OC)cc65)c4O)c(C)cc3c2c1
5. CSc1nc2c(c(=O)[nH]1)N=C(c1ccccc1)CC(c1ccccc1)N2 (stereo not given)

## Result
> 100 µM
> 100 µM
11.3 µM
20 µM
> 100 µM

###

Field: TGI. Provide a value for each of the compounds that follow.
- Tested on: SF-295 CNS
- run_description: NCI tumour cell line growth inhibition, 48 h

compound: CN(C)c1ccc(C=C2C(=O)NC(=S)NC2=O)c2ccccc12
measured_on: SF-295 CNS
TGI: > 100 µM

compound: ClCCCCCc1c2nc(c(CCCCCCl)c3ccc([nH]3)c(CCCCCCl)c3ccc([nH]3)c(CCCCCCl)c3nc1C=C3)C=C2
measured_on: SF-295 CNS
TGI: > 100 µM

State the recorded TGI for every item in the following list.
1. COc1ccc(-c2c(C#N)c(S)n(NS(=O)(=O)c3ccccc3)c(=O)c2C#N)cc1
2. COC(=O)C(CC1=C(O)Nc2ccccc2N1)/C(=N/NC(N)=O)C(=O)Nc1ccccc1C (stereo not given)
3. Cc1cnc2[nH]c(-c3ccc4ccccc4c3)cc(=O)c2c1
4. CN1CCc2[nH]nc(-c3n[nH]c4c3CN(C)CC4)c2C1

## Result
1: > 100 µM; 2: > 100 µM; 3: > 100 µM; 4: > 100 µM

State the recorded TGI for every item in the following list.
1. Cc1ccc(N(C)S(=O)(=O)c2ccccc2[N+](=O)[O-])cc1
2. O=C(N/N=C(/COc1ccccc1)N=Cc1cccnc1)c1ccncc1

## Result
> 100 µM
> 100 µM

State the recorded TGI for every item in the following list.
1. CCSc1nc(SCC)c2c(-c3ccc(OC)c(OC)c3)c(C#N)c(SCC)nc2n1
2. O=c1cc(-c2cccnc2)[nH]c2cc3c(cc12)OCO3
3. ON=C(CC(O)(C(F)(F)Cl)C(F)(F)Cl)CC(O)(C(F)(F)Cl)C(F)(F)Cl
4. CC(=O)O[C@H]1CCC2[C@@H]3CCC4c5nonc5CC[C@]4(C)C3CC[C@@]21C (stereo not given in full)
5. O=c1oc2c(Cl)cc(Cl)cc2cc1C1=CSC2=NCCN12
6. COc1ccc(/C=C2\C[C@H]3[C@@H]4CCC5=CC(=O)CC[C@]5(C)[C@H]4CC[C@]3(C)C2=O)cc1OC
7. C[C@@H]1CC[C@@]2(OC1)O[C@H]1C[C@H]3[C@@H]4CC[C@H]5C[C@@H](OC6OC(CO)C(OC7OC(CO)C(O)C(OC8OCC(O)C(O)C8O)C7OC7OC(CO)C(O)C(O)C7O)C(O)C6O)[C@H](O)C[C@]5(C)[C@H]4CC[C@]3(C)[C@H]1[C@@H]2C (stereo not given in full)
8. Cc1ccc(C(=O)NC2CCC2)cc1-c1ccc(C(=O)NCC2CC2)cc1

## Result
1. 39.9 µM
2. > 38.5 µM
3. > 10 µM
4. > 10 µM
5. > 100 µM
6. > 100 µM
7. 13.4 µM
8. > 25 µM

State the recorded TGI for every item in the following list.
1. CC1(C)N=C(C2CCCN2C(=O)OCc2ccccc2)OC1=O (stereo not given)
2. Nc1c(C(=O)c2cccc(-c3cccnc3)c2)cnn1-c1ccc(F)cc1F
3. NS(=O)(=O)c1ccc(/C=C/c2ccc(O)cc2)cc1
4. CCO/C=N/C1=C(C#N)SC2=N/C(=C\c3ccccc3)C(=O)N21

## Result
1. > 100 µM
2. > 24 µM
3. 65 µM
4. > 100 µM

###

- Tested on: MALME-3M melanoma
- run_description: NCI tumour cell line growth inhibition, 48 h; in the data active means GI50 below about 0.43 µM; inactive means the rest
I would appreciate it if you answered using one of these outcomes: 1.0 = active, 0.0 = inactive

Here are 8 molecules together with their reported answers.
molecule: Cc1[nH]c2ccc(F)cc2c1-c1nc2c3cccnc3c3ncccc3c2[nH]1
cat: 1.0
//
molecule: C[CH2][Sn]([CH2]C)([O]C(=O)c1ccccc1F)[O][Sn]([CH2]C)([CH2]C)[O]C(=O)c1ccccc1F
cat: 0.0
//
molecule: CCN1C(=O)N(CC)C2C1NN=c1s/c(=C\c3ccccn3)c(=O)n12 (stereo unspecified)
cat: 0.0
//
molecule: CC(=O)O[C@H]1CCC2[C@@H]3CCC4c5nonc5CC[C@]4(C)C3CC[C@@]21C (stereo partly specified)
cat: 0.0
//
molecule: COC(=N)c1c(N)[n+]([O-])c2ccc(F)cc2[n+]1[O-]
cat: 0.0
//
molecule: COC(=O)Nc1nc2ccc(Oc3cccc(NC(=O)Nc4cc(C(F)(F)F)ccc4F)c3)cc2[nH]1
cat: 0.0
//
molecule: COC(=O)C1=C(C)NC(C)=C(C(=O)OCC(C)C)C1c1ccccc1[N+](=O)[O-] (stereo unspecified)
cat: 0.0
//
molecule: COc1ccc(C(=O)/C=C/c2cccc(Nc3ccnc4cc(Cl)ccc34)c2)cc1
cat: 0.0

## Task Outcome logged for CN(C)c1ccc(C(=NO)c2ccc(N(C)C)cc2)cc1 in this assay:
## Result 0.0

## Task Outcome logged for Nc1ncnc2c1c(-c1ccc(Oc3ccccc3)cc1)nn2C[C@@H]1SSC[C@H]1O in this assay:
## Result 0.0

## Task Outcome logged for COc1ccc(C2=C(c3ccc(OC)c(OC)c3)C(=O)N3CCCC3C2)cc1 (stereo unspecified) in this assay:
## Result 0.0

###

- System: T-47D breast
- run_description: NCI tumour cell line growth inhibition, 48 h
Field: TGI. Provide a value for each of the compounds that follow.

Recorded results for 6 compounds are shown here.
compound: OCCn1cnc2c(SCc3ccccc3)ncnc21
TGI: > 100 µM
--
compound: Cc1ccc(C(=O)NC2CCC2)cc1-c1ccc(C(=O)NCC2CC2)cc1
TGI: > 25 µM
--
compound: ON=C(CC(O)(C(F)(F)Cl)C(F)(F)Cl)CC(O)(C(F)(F)Cl)C(F)(F)Cl
TGI: > 10 µM
--
compound: O=c1oc2cc(O)ccc2c(O)c1Cc1c(O)c2ccc(O)cc2oc1=O
TGI: > 100 µM
--
compound: O=C1CC(=O)NC(=NNS(=O)(=O)c2ccc(Cl)cc2)N1
TGI: > 100 µM
--
compound: Nc1ccccc1C#C/C=C\C#Cc1cccc(O)c1
TGI: > 60.8 µM

State the recorded TGI for every item in the following list.
1. O=C1C(SCCO)=C(SCCO)C(=O)N1c1ccc(-c2ccccc2)cc1
2. COc1cc2c(c(OC)c1OC)-c1ccc(SC)cc1C(O)CC2 (configuration not stated)

## Result
1. 7.43 µM
2. > 100 µM

State the recorded TGI for every item in the following list.
1. COc1ccc(CC(=O)c2ccc(O)cc2O)cc1
2. O=C1CC(NCc2ccccc2)c2c(Cl)sc(Cl)c21 (configuration not stated)
3. CC(=O)OC(Cc1c(O)c2c(C)cccc2oc1=O)C(C)(C)O (configuration not stated)

## Result
1: > 100 µM; 2: > 100 µM; 3: > 100 µM

## Task Need TGI of CCOC1CC(C)N(C(=O)c2ccccc2)O1 (configuration not stated) , thanks.
## Result > 100 µM

Source: PubChem BioAssay (NCI)
